system: A2780; assay: Cytotoxicity against human A2780 cells after 48 hrs by MTT assay; format: functional, cell-based; conditions: A2780, 48 h
property_label: IC50 (µM)
API: value field is a number in µM; no unit string.

// below: answered molecules
INSERT INTO results (molecule_smiles, val) VALUES
  ('COc1ccccc1C(=O)Nc1n[nH]c2ncc(Br)cc12', 27),
  ('O=C(Nc1n[nH]c2c1CN(C(=O)c1ccco1)C2)c1ccc2ccccc2c1', 54),
  ('O=C(Cc1ccc(Br)cc1)Nc1n[nH]c2ncc(Br)cc12', 22.8),
  ('O=C(Nc1n[nH]c2ncc(Br)cc12)c1ccc(F)cc1', 50),
  ('O=C(Nc1n[nH]c2c1CN(C(=O)[C@@H](O)c1ccccc1)C2)c1ccco1', 35),
  ('COc1cc(OC)cc(C(=O)Nc2n[nH]c3ncc(Br)cc23)c1', 37.9),
  ('O=C(Nc1n[nH]c2ncc(Br)cc12)c1ccccc1Cl', 46.7),
  ('CO[C@H](C(=O)N1Cc2[nH]nc(NC(=O)c3ccc4ccccc4c3)c2C1)c1ccccc1', 23),
  ('O=C(Nc1n[nH]c2ncc(Br)cc12)c1ccccn1', 46.5),
  ('CO[C@H](C(=O)N1Cc2[nH]nc(NC(=O)c3ccc(N4CCN(C)CC4)cc3)c2C1)c1ccccc1', 11);

Now look at this entry.
Asked: Fill in the recorded IC50 for this molecule, with A2780 as test system: "O=C(Nc1n[nH]c2ncc(Br)cc12)c1ccc(Cl)cc1"
Given back: 51.6
